- assayedTarget: Melanocortin receptor 5 (Mus musculus, UniProt P41149)
- Sequence (P41149 whole entry): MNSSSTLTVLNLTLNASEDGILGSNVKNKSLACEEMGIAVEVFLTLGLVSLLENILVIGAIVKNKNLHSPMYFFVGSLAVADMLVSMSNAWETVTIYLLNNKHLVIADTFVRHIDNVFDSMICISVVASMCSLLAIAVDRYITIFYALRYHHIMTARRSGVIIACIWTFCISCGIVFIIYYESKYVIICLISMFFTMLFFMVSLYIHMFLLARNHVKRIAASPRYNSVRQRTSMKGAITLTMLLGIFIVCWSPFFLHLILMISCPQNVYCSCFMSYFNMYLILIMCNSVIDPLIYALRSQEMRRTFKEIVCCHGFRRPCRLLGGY
- protocolDetails: Displacement of [125I]NDP-MSH from mouse melanocortin receptor-5 expressed in 293 HEK cells
readoutLabel: pIC50
Conceptually, pIC50 converts a concentration in mol/L into minus its log10.

molecule	assayedTarget	pIC50
CCCC[C@H](NC(C)=O)C(=O)NCC(=O)N(CCCCN)CC(=O)NC(Cc1ccccc1)C(=O)N(CCCNC(=N)N)CC(=O)N(CCc1c[nH]c2ccccc12)CC(=O)NCC(N)=O (single isomer, unassigned)	Melanocortin receptor 5 (Mus musculus, UniProt P41149)	5.80

**Query** Could you tell me which pIC50 is on file for CCCCN(CC(=O)NCC(=O)N(CCCCN)CC(=O)N[C@H](Cc1ccccc1)C(=O)N(CCCN=C(N)N)CC(=O)N(CCc1c[nH]c2ccccc12)CC(=O)NCC(N)=O)C(C)=O ?
**Result** 5.70

**Query** Which pIC50 reading was recorded for the molecule CCCC[C@H](NC(C)=O)C(=O)NCC(=O)N[C@@H](CCCCN)C(=O)N[C@H](Cc1ccccc1)C(=O)N[C@@H](CCCN=C(N)N)C(=O)N(CC(=O)NCC(N)=O)Cc1c[nH]c2ccccc12 ?
**Result** 6.10

**Query** Which pIC50 is listed for CCCCN(CC(=O)NCC(=O)N(CCCCN)CC(=O)N[C@H](Cc1ccccc1)C(=O)N(CCCN=C(N)N)CC(=O)N(CC(=O)NCC(N)=O)Cc1c[nH]c2ccccc12)C(C)=O ?
**Result** 5.40
